- Tested on: UACC-257 melanoma
- assay.notes: NCI tumour cell line growth inhibition, 48 h
measured.metric: TGI

compound	reported.result
C=CCc1oc(C)nc1CCCC	> 100 µM
CCOC(=O)N/N=C(\CC)NO	> 100 µM
CCC[CH2][Sn]([CH2]CCC)([O]C(=O)c1cc(F)ccc1F)[O]C(=O)c1cc(F)ccc1F	2.49 µM

Qu. Which TGI reading was recorded for the compound COC(=O)[C@]12C3=C(O)C(=O)C[C@H]1OC[C@H]2C=CC3 ?
Ans. > 100 µM

Qu. Same lookup for COc1ccc(C2Oc3c(cccc3-c3c(-c4ccc(O)cc4)oc4cc(O)cc(O)c4c3=O)C(=O)C2O)cc1O (stereo not drawn) , please.
Ans. > 100 µM

Qu. Same lookup for CCOC(=O)c1c(N2CCOCC2)ncn(-c2cccc(Cl)c2)c1=O , please.
Ans. > 100 µM

Qu. Same lookup for COC1(OC)N=C(N)C2(C#N)C(C)=C3NCN(C)N=C3C12C#N (stereo not drawn) , please.
Ans. > 100 µM

Qu. Same lookup for O=C(Sc1n[nH]c(=O)[nH]c1=O)c1cccc2nc3ccccc3nc12 , please.
Ans. 39 µM

Qu. Same lookup for CCCCSc1nc(N)c2cn[nH]c2n1 , please.
Ans. 35 µM

* * *

- Tested on: HOP-92 NSCLC
- assay.notes: NCI tumour cell line growth inhibition, 48 h
measured.metric: TGI

compound	system.tested	TGI
CC1(C)N=C(c2ccccc2)SC12S[C@@H]1CCCC[C@H]1S2	HOP-92 NSCLC	> 100 µM
C[C@]12Cc3conc3C(O)=C1CC[C@@H]1C2CC[C@@]2(C)C1CC[C@]2(C)O (stereo partly drawn)	HOP-92 NSCLC	61.5 µM
CC(C)N1C(C)[C@@H](c2ccccc2)O[P@@]1(=O)CC1=CCCCC1 (stereo partly drawn)	HOP-92 NSCLC	> 100 µM
CCC[n+]1cc2cc3c(cc2c2c1-c1cc4c(cc1C2)OCO4)OCO3 (tested in a mixture with another compound)	HOP-92 NSCLC	4.07 µM
Cc1ccc(C2[C@H]3C(=O)N(c4ccc(Cc5ccc(N6C(=O)[C@@H]7ON(c8ccccc8)C(c8ccc(C)cc8)[C@@H]7C6=O)cc5)cc4)C(=O)[C@H]3ON2c2ccccc2)cc1 (stereo partly drawn)	HOP-92 NSCLC	> 100 µM
CC1=CC(C)(C)Nc2ccc(Cc3ccc4c(c3)C(C)=CC(C)(C)N4)cc21	HOP-92 NSCLC	65.6 µM
CNn1c(-c2ccc(C)cc2)n[nH]c1=O	HOP-92 NSCLC	> 100 µM

Pending compound:
Qu. Record Cc1ccc2c(c1)C=CC1(O2)N(c2ccccc2)C(=S)OC1(C)C (stereo not drawn) : what is its TGI with HOP-92 NSCLC?
Ans. > 100 µM

* * *

- Tested on: MCF7 breast
- assay.notes: NCI tumour cell line growth inhibition, 48 h
measured.metric: TGI

molecule	system.tested	TGI
CC(=O)O[C@@H]1C2=C(C)C3(CC3)[C@@](C)(O)C(=O)C2=C[C@@]1(C)CO	MCF7 breast	3.28 µM
Cc1c(NC(=O)Nc2c(Cl)cccc2Cl)c(=O)n(-c2ccccc2)n1C	MCF7 breast	> 100 µM
Cc1cc(N(CCC#N)CCC#N)ccc1/C=C(\NC(=O)/C=C/c1ccccc1)C(=O)Nc1ccc(Cl)cc1	MCF7 breast	> 100 µM
COCCNCc1ccc(-c2cc3nccc(Oc4ccc(NC(=O)C5(C(=O)Nc6ccc(F)cc6)CC5)cc4F)c3s2)nc1	MCF7 breast	3.58 µM
Nc1nc(Cl)c(N)c(NCC2(CO)CCC(CCc3ccccc3)C2)n1 (stereo not given)	MCF7 breast	34.9 µM
O=C(NNc1ccccc1)c1ccc(Cl)c(Cl)c1	MCF7 breast	> 100 µM
C/C(O)=C(\C=NC(=S)c1cccnc1)C(=O)Nc1ccccc1C	MCF7 breast	> 100 µM
O=c1[nH]c2ccc(Cl)cc2o1	MCF7 breast	> 100 µM

Qu. Which TGI reading was recorded for the molecule CC(=O)N1C(CCc2ccccc2)CC(C)(C=O)C1Cc1ccc(O[Si](C(C)C)(C(C)C)C(C)C)cc1 (stereo not given) ?
Ans. 5.26 µM

* * *

- Test system: SK-MEL-5 melanoma
- assay.notes: NCI tumour cell line growth inhibition, 48 h
measured.metric: TGI

Qu. Which TGI reading was recorded for the compound O=C(O/N=c1/ccc(=O)/c(=N\OC(=O)c2ccccc2)c1=O)c1ccccc1 ?
Ans. > 100 µM

Qu. Same lookup for NNC(=O)CCc1ccc2ccc3ccccc3c2c1 , please.
Ans. > 100 µM

Qu. Same lookup for O=C1C(Cl)=C(Cl)C(=O)N1c1cccc(C(F)(F)F)c1 , please.
Ans. > 100 µM

Qu. Same lookup for CC(=O)c1ccc2c3c1[C@H]1O[C@H]1c1cccc(c1-3)[C@@H]1O[C@H]21 , please.
Ans. 5.39 µM

Qu. Same lookup for CC1(C)OC[C@H](COCOP2(=O)Oc3ccc4ccccc4c3-c3c(ccc4ccccc34)O2)O1 , please.
Ans. 73 µM

Qu. Same lookup for C[C@@]1(C(=O)O)CCC[C@]2(C)C1CC[C@]13C[C@@](O)(CO)[C@](O)(CC[C@]12O)C3 (stereo partly specified) , please.
Ans. > 100 µM

Qu. Same lookup for O=c1oc2ccccc2c(O)c1C(c1cccc(C(c2c(O)c3ccccc3oc2=O)c2c(O)c3ccccc3oc2=O)c1)c1c(O)c2ccccc2oc1=O , please.
Ans. 95.7 µM

Qu. Same lookup for C=CCC(N[C@H](CO)c1ccccc1)c1ccccn1 (stereo partly specified) , please.
Ans. > 100 µM

Qu. Same lookup for COC(=O)[C@]12C3=C(O)C(=O)C[C@H]1OC[C@H]2C=CC3 , please.
Ans. > 100 µM

Qu. Same lookup for Cc1cccc2c1Sc1ccccc1C2NC(=O)CN(C)C (stereo unspecified) , please.
Ans. > 100 µM

* * *

Recorded measurements of log10(TGI), one per entry
- Test system: T-47D breast
- assay.notes: NCI tumour cell line growth inhibition, 48 h
Quick note: numbers are log10 of TGI, with µM as the unit.

Qu. Which log10(TGI) reading was recorded for the compound N#C/C(=C\c1ccc([N+](=O)[O-])o1)c1n[nH]c(Cc2ccccc2)n1 ?
Ans. 0.62

* * *

- Tested on: SN12C renal
- assay.notes: NCI tumour cell line growth inhibition, 48 h
measured.metric: TGI

These solved cases illustrate the format of a correct answer.
molecule	measured.metric	reported.result
CC1CC(=NC2CCCCC2)Nc2ccccc2N1Cc1ccccc1 (centres undefined)	TGI	22.1 µM
CNn1c(-c2ccc(C)cc2)n[nH]c1=O	TGI	> 100 µM

Qu. Which TGI reading was recorded for the molecule COc1ccc(/C=C2\CCC(C)c3c2nc(N)c(C#N)c3-c2ccc(OC)c(OC)c2)cc1OC (centres undefined) ?
Ans. > 100 µM

Qu. Same lookup for Cc1cc2c3c([n+](C)c4ccc(F)cc4c3c1)-c1cc(F)ccc1N2C , please.
Ans. 23.5 µM

Qu. Same lookup for CC(Cc1ccccc1)N(C)Cc1nc(C2CCC([N+](=O)[O-])O2)no1 (centres undefined) , please.
Ans. 11 µM

Qu. Same lookup for C[C@@]1(C(=O)O)CCC[C@]2(C)C1CC[C@]13C[C@@](O)(CO)[C@](O)(CC[C@]12O)C3 (some centres undefined) , please.
Ans. > 100 µM

Qu. Same lookup for Cn1cc(C2=C(c3cc[nH]c3)C(=O)NC2=O)c2ccccc21 , please.
Ans. > 25 µM

Qu. Same lookup for CCCS(=O)c1nc(COC(=O)NC)c(COC(=O)NC)n1C (centres undefined) , please.
Ans. > 100 µM

Qu. Same lookup for O=S(O)CCCSSSCCCS(=O)O , please.
Ans. > 100 µM

Qu. Same lookup for COc1ccc(/C=N/N=C(\N)NO)cc1F , please.
Ans. > 100 µM

Qu. Same lookup for C[C@@H](CS[As](C)C)C(=O)N1CCC[C@H]1C(=O)O , please.
Ans. 1.03 µM

Qu. Same lookup for O=C1NC2C3CC(OCc4ccccc4)(OCc4ccccc4)C2OC3O1 (centres undefined) , please.
Ans. > 50 µM

* * *

Recorded measurements of TGI, one per entry
- Tested on: SR leukemia
- assay.notes: NCI tumour cell line growth inhibition, 48 h

Qu. Which TGI reading was recorded for the compound O=[N+]([O-])c1cccc(-c2cn3c(n2)Cc2ccccc2C3)c1 ?
Ans. > 100 µM

Qu. Same lookup for Cc1cccc(Nc2nc3ccccc3nc2NS(=O)(=O)c2ccccc2)c1 , please.
Ans. > 100 µM

Qu. Same lookup for CCCCSc1nc(N)c2cn[nH]c2n1 , please.
Ans. 36.4 µM

Qu. Same lookup for Cc1ccc(C)n2c1nc1cc3ccccc3cc12 , please.
Ans. > 100 µM

* * *

- System: RPMI-8226 leukemia
- assay.notes: NCI tumour cell line growth inhibition, 48 h; in the data active = GI50 below about 0.43 µM; inactive = the rest
Your response should consist of one outcome taken from y = active, n = inactive

Solved cases below.
molecule	class
c1cc(C2CCCCC2)ccc1-c1cnc2nonc2n1	y
COc1c(B(O)O)cccc1-c1nc2ccc3[nH]ncc3c2c2c1CCCC2	n
CC1=NN(c2cccc(Cl)c2)C(=O)/C1=C\C=C\c1ccccc1	n
CC(=O)[CH-]C(=O)c1ccccc1.CC(=O)[CH-]C(=O)c1ccccc1.CC[C@H](/C=C/C(C)[C@H]1CCC2[C@@H]3CC=C4C[C@@H]([O-])CC[C@]4(C)C3CC[C@@]21C)C(C)C.CC[C@H](/C=C/C(C)[C@H]1CCC2[C@@H]3CC=C4C[C@@H]([O-])CC[C@]4(C)C3CC[C@@]21C)C(C)C.Cl.[Ti+4] (stereo not given in full)	n

Qu. Please let me know the test result on file for [Cl][Hg][c]1ccc2ccccc2c1 .
Ans. n

Values were extracted from PubChem BioAssay (NCI).
